Ref: patent US20110172296A1

Tested on: human TGF-beta1 mRNA
ASSAY OVERVIEW: Antisense inhibition of human TGF-beta1 mRNA in HuVEC cells, single 10 nM dose, Lipofectamine 2000 (Example 2)
Assay type: cell-based
CONDITION DETAILS: 10 nM oligonucleotide, HuVEC, relative to untreated control cells; gapmers targeted to SEQ ID NO: 2
In the oligonucleotide strings, read from the 5' end, every base follows the letter of its sugar. An asterisk marks phosphorothioate; unmarked linkages are phosphodiester. Other units and linkages are bracketed, terminal groups are in braces. A string of capitals states the bases alone. e = 2'-O-(2-methoxyethyl) (MOE); [5mC] = 5-methylcytosine; d = 2'-deoxy (DNA)
Would you mind labelling by % inhibition? At or over 70% is class 1, under is class 0.

SUBSTANCE: 414050 (antisense eT*eT*d[5mC]*d[5mC]*d[5mC]*d[5mC]*dA*dA*dG*dG*d[5mC]*dT*d[5mC]*dT*dG*eA*eA*e[5mC]*e[5mC]*eA) [compound 414050]
CLASS: class 1

SUBSTANCE: 414052 (antisense eA*e[5mC]*dA*d[5mC]*dA*dT*dG*dT*dG*d[5mC]*dA*dT*dT*dT*dG*eT*eT*eG*eG*eG) [compound 414052]
CLASS: class 0

SUBSTANCE: 414122 (antisense eT*e[5mC]*dA*d[5mC]*dT*dA*dA*d[5mC]*dA*d[5mC]*dA*dG*dA*dT*dT*eA*eA*eG*e[5mC]*eA) [compound 414122]
CLASS: class 0

SUBSTANCE: 414094 (antisense eT*e[5mC]*dA*dA*dG*dA*dG*dG*dT*dT*d[5mC]*dA*dA*dA*d[5mC]*eT*eG*eA*e[5mC]*eA) [compound 414094]
CLASS: class 0

% inhibition >= 70% for 414049 (antisense e[5mC]*eT*dG*dA*dG*dT*dG*dG*dG*dA*dG*d[5mC]*d[5mC]*d[5mC]*d[5mC]*eG*e[5mC]*e[5mC]*e[5mC]*eG) [compound 414049] ?
class 0
